- Test Details: qHTS of pediatric cancer cell lines to identify multiple opportunities for drug repurposing: Primary screen for OHS-50 cells (AID 1347103); also: nearly all actives have a fitted effect of over 40% in size
- Test Conditions: OHS-50 osteosarcoma viability, CellTiter-Glo luminescence, 48 h; series mostly up to 57.3 µM
Results filed as inconclusive are left out. Calls of active or inactive are those of the source. Calls follow the shape of the dose curve; as a rule, active = well fitted cell-killing curve with a large enough effect; inconclusive = small, poorly fitted or top-dose-only effect; inactive = no such curve, though single readings can be large or run the other way.
Respond using exactly one of the listed classes: active, inactive

> print(dat)
                                   compound  qualitative.label
1  Nc1ccn([C@@H]2O[C@H](CO)[C@@H](O)C2(F)F)c(=O)n1             active
2              O=C(N/N=C/c1ccccc1O)c1ccncc1             active
3  CC1(C)OC[C@@H](COC(=O)CCc2ccc(OC[C@@H](O)CNCCNC(=O)N3CCOCC3)cc2)O1           inactive

Field: next compound
Recorded test outcome, item CO/N=C1\CN(c2nc3c(cc2F)c(=O)c(C(=O)O)cn3C2CC2)CC1CN (centres undefined) inactive

----------
- System: TAB109
- Test Details: qHTS profiling for inhibitors of Plasmodium falciparum proliferation (AID 504749); also: nearly all actives have a fitted effect of over 60% in size
- Test Conditions: P. falciparum in erythrocytes, SYBR Green DNA, 72 h; series mostly up to 28.7 µM
Records with an inconclusive call do not appear. Calls of active or inactive are those of the source. Calls come from the whole dose curve; as a rule, active = well fitted inhibition curve with a large enough effect; inconclusive = small, poorly fitted or top-dose-only effect; inactive = flat fitted curve, though single readings scatter.
Respond using exactly one of the listed classes: yes (active), no (inactive)

Record excerpt, results attached:
> print(dat)
                                   compound  qualitative.label
1           NC(CS)C(=O)O (stereo not given)                yes
2                     CN1CCC[C@@H]1c1cccnc1                 no
3                N[C@@H](Cc1cnc[nH]1)C(=O)O                 no
4  c1ccc(-c2ccc(C(c3ccccc3)n3ccnc3)cc2)cc1 (stereo not given)                yes

Field: next compound
Recorded test outcome, item CN1CCN(C(c2ccccc2)c2ccccc2)CC1 no

----------
- Test Details: qHTS of pediatric cancer cell lines to identify multiple opportunities for drug repurposing: Primary screen for MG 63 (6-TG R) cells (AID 1347105); also: nearly all actives have a fitted effect of over 50% in size
- Test Conditions: MG 63 (6-TG R) viability, CellTiter-Glo, 48 h; series mostly up to 46 µM
Inconclusive results are not listed. Active and inactive are the calls of the source. Calls follow the shape of the dose curve; as a rule, active = well fitted cell-killing curve with a large enough effect; inconclusive = small, poorly fitted or top-dose-only effect; inactive = no such curve, though single readings can be large or run the other way.
Respond using exactly one of the listed classes: active, inactive

Record excerpt, results attached:
> print(dat)
                                   compound  qualitative.label
1  COC(=O)[C@@H]1CC2=CC(=O)CC[C@]2(C)[C@@]23O[C@@H]2C[C@@]2(C)[C@@H](CC[C@@]24CCC(=O)O4)[C@H]13           inactive
2  N[C@@H](CCC(=O)N[C@@H](CS)C(=O)NCC(=O)O)C(=O)O           inactive
3  CO/N=C1\CN(c2nc3c(cc2F)c(=O)c(C(=O)O)cn3C2CC2)CC1CN (stereo not drawn)           inactive

Recorded test outcome, item Cc1ccc(C(=O)C(C)CN2CCCCC2)cc1 (stereo not drawn) inactive

How about this compound: CC(=O)CC(c1ccc([N+](=O)[O-])cc1)c1c(O)c2ccccc2oc1=O (stereo not drawn) inactive

How about this compound: COc1ccc(CN2CCN(C(c3ccc(F)cc3)c3ccc(F)cc3)CC2)c(OC)c1OC inactive

How about this compound: Cc1cc(O)c(C(C)C)cc1Cl inactive

How about this compound: CC(=O)Oc1ccc(C(=C2CCCCC2)c2ccc(OC(C)=O)cc2)cc1 inactive

How about this compound: C[C@]12C=CC(=O)C=C1CC[C@@H]1[C@@H]2[C@@H](O)C[C@@]2(C)[C@H]1CC[C@]2(O)C(=O)CO inactive

How about this compound: CN(C)C(=S)SC(=S)N(C)C active
